System: methionyl-tRNA synthetase (Trypanosoma brucei brucei)
Assay: inhibition of trypanosome methionyl-tRNA synthetase – biochemical, fluorescence polarization, orthogonal assay for T. brucei MetRS inhibitor project (AID 651607)
Conditions: purified T. brucei MetRS, at 11.9 µM
Out of some 1,400 compounds screened, about 600 (43%) were called active. No stated cut-off is given here; in the data, active means inhibition above about 17%; inactive means the rest. So high a share suggests a set chosen from earlier hits. A selection follows.
Outcomes: True = active, False = inactive

- compound: "Fc1ccc(NC(=S)N2CCc3[nH]c4ccccc4c3C2)cc1"
  classification: "True"
- compound: "O=C(NCCN1CCOCC1)c1ccccc1N1C(=O)[C@@H]2Cc3c([nH]c4ccccc34)C(c3cccc(Cl)c3)N2C1=O (stereo partly drawn)"
  classification: "False"
- compound: "Cc1ccc(N2C(=O)CC(NCc3ccc4c(c3)OCO4)C2=O)cc1Cl (stereo not drawn)"
  classification: "True"
- compound: "S=c1[nH]nc(CSCc2ccc(Cl)cc2Cl)n1-c1ccccc1"
  classification: "False"
- compound: "COc1ccc(-c2[nH]ncc2/C=N/NC(=O)c2cc(Br)ccc2O)c(OC)c1"
  classification: "False"
- compound: "CCCCN1C[C@H](c2ccc(Br)cc2)[C@@H](CC(=O)Nc2ccc(Br)cc2)C1=O"
  classification: "True"
- compound: "Oc1[nH]c2ccc(Br)cc2c1N=Nc1nn[nH]n1"
  classification: "False"
- compound: "COC(=O)/C(=C\\Nc1ccccc1)NC(=O)c1ccc(Cl)cc1Cl"
  classification: "True"
- compound: "O=C(O)c1ccc(NS(=O)(=O)c2ccc3c(c2)C(=O)c2cc(S(=O)(=O)Nc4ccc(C(=O)O)cc4)ccc2-3)cc1"
  classification: "False"
- compound: "O=C(CC(=O)Nc1ccc(Cl)c(Cl)c1)N/N=C/c1ccc(O)cc1"
  classification: "True"
- compound: "Clc1ccc(-c2cc(C3CCNCC3)[nH]n2)c(Cl)c1"
  classification: "True"
- compound: "Cc1ccc(S(=O)(=O)c2c[nH]c3ccc(C)cc3c2=O)cc1"
  classification: "True"
- compound: "Cc1ccccc1OCC(=O)NNC(=O)c1ccc(-n2cncn2)c([N+](=O)[O-])c1"
  classification: "False"

Data credit: PubChem BioAssay AID651607
